Assay Name: Selectivity index, ratio of GI50 for cytotoxicity against human HEK293 cells to IC50 for inhibition of TGF-beta signalling pathway
Measured Attribute: Selectivity Index
# print the numeric value only

Param item = COc1ccc(Nc2nnc(N3CCN(Cc4cccc(C(F)(F)F)c4)CC3)c3ccccc23)cc1 ; retrieve measured Selectivity Index.
8.83

Same for CN(C)CCNc1nnc(N2CCN(Cc3cccc(C(F)(F)F)c3)CC2)c2ccccc12
1.77

Queued: O=S1(=O)CCN(CCNc2nnc(N3CCN(Cc4cccc(C(F)(F)F)c4)CC3)c3ccccc23)CC1
6.18

Repeat with N#Cc1cccc(CN2CCN(c3nnc(Nc4ccc(N5CCOCC5)cc4)c4ccccc34)CC2)c1
8.51

// next entry
Which Selectivity Index is listed for FC(F)(F)c1cccc(Cn2cc(-c3nnc(Nc4ccc(N5CCOCC5)cc4)c4ccccc34)cn2)c1 ?
2.51
